Measured values drawn from paper PMC6007841 for this set.

target: mMC1R (Mus musculus, UniProt Q01727); assay: cAMP AlphaScreen agonist assay, mMC1R
Sequence (Q01727 whole entry): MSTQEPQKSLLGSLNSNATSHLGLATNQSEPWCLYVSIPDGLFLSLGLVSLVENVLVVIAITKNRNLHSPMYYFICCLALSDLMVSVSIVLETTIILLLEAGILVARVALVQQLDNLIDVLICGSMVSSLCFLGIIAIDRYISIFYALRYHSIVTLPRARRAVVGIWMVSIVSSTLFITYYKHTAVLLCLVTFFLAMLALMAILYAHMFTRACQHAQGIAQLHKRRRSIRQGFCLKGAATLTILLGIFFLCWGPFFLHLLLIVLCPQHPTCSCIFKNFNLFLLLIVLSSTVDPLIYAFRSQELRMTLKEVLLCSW
Ends that are not written are not given here.
measure.name: EC50

Task: Entry GIINTLQKYYCRVRGGRCAVLSCLPKEEQIGKCSTRGRKCCRRKK (cysteines drawn unpaired) [hBD3red] : reported EC50 = ?
Output: > 100 µM

* * *

target: hMC3R (Homo sapiens, UniProt P41968); experiment: cAMP AlphaScreen agonist assay, hMC3R
Sequence (P41968 whole entry): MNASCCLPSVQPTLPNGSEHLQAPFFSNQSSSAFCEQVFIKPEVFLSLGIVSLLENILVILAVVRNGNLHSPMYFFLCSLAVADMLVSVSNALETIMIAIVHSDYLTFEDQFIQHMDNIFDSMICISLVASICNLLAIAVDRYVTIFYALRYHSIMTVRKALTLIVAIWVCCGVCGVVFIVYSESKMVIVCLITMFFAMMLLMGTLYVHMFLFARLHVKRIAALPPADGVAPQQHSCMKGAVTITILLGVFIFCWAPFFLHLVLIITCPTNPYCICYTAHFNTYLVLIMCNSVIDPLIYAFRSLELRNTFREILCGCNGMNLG
pEC50: −log10 of the molar value. Bridge positions count the residues as written; N and C are the ends. Ends that are not written are not given here.
measure.name: pEC50

Guide cases for pEC50, answers given:
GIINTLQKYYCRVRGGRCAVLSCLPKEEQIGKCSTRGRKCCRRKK (cysteines drawn unpaired) [hBD3red] : < 4.00
FLPKTLRKFFCRIRGGRCAVLNCLGKEEQIGRCSNSGRKCCRKKK (disulfide 11-40, 18-33, 23-41) [mBD3*] : < 4.00

Below: the item to evaluate.
Task: Entry FLPKTLRKFFCRIRGGRCAVLNCLGKEEQIGRCSNSGRKCCRKKK (cysteines drawn unpaired) [mBD3*red] : reported pEC50 = ?
Output: < 4.00
